# SYSTEM: TLR8 (Homo sapiens, UniProt Q9NR97)
# Construct: host or cells: HEK-Blue cells (human HEK) co-expressing TLR8 and an NF-kB/AP1-inducible SEAP reporter
# Sequence (Q9NR97 27-1041): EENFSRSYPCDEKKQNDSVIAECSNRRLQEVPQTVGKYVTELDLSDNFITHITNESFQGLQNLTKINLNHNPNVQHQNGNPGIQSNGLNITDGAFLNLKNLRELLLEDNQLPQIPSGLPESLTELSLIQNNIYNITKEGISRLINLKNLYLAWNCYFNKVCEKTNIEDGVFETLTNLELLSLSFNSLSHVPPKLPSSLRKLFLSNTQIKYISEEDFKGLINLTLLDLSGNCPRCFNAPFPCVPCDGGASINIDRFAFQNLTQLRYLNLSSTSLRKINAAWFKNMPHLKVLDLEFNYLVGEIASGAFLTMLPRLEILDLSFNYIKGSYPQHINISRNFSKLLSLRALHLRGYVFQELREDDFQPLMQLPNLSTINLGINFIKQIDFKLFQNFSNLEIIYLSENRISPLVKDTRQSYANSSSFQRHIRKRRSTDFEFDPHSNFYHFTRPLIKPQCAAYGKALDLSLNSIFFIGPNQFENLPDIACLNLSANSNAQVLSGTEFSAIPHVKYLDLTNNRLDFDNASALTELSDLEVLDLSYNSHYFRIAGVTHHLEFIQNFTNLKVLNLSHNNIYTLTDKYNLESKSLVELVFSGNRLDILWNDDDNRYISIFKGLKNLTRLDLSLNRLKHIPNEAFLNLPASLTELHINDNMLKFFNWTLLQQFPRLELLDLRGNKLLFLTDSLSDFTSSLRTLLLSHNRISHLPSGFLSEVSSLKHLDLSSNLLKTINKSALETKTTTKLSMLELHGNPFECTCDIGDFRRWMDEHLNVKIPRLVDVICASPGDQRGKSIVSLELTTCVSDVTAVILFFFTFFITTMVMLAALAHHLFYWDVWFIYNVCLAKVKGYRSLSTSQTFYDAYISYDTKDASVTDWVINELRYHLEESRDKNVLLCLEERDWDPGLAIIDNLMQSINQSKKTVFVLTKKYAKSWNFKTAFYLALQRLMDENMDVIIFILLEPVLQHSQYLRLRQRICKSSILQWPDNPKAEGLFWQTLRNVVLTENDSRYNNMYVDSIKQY
# PROTOCOL_SUMMARY: In vitro human TLR8 binding reporter assay (HEK-Blue, NF-kB/AP1-inducible SEAP)
# Type: cell-based
# CONDITION_DETAILS: activity range symbols
REPORTED_METRIC: EC50

The examples below pair each entry with its known result.
COMPOUND	SYSTEM	EC50
CCN(Cc1nc2c(N)nc3cc(OC)ccc3c2[nH]1)C(C)=O	TLR8 (Homo sapiens, UniProt Q9NR97)	> 100 µM
CCN(Cc1nc2c(N)nc3cc(-n4cccn4)ccc3c2[nH]1)C(C)=O	TLR8 (Homo sapiens, UniProt Q9NR97)	> 100 µM
COc1ncccc1-c1ccc2c(c1)nc(N)c1nc(CN3CCCC3=O)[nH]c12	TLR8 (Homo sapiens, UniProt Q9NR97)	> 100 µM
CCN(Cc1nc2c(N)nc3cc(-c4cc[nH]n4)ccc3c2[nH]1)C(=O)CCCc1ccccc1	TLR8 (Homo sapiens, UniProt Q9NR97)	1 to 20 µM
Nc1nc2ccc(Cl)cc2c2[nH]c(CN3CCCC3=O)nc12	TLR8 (Homo sapiens, UniProt Q9NR97)	> 100 µM
CCn1c(CN2CCCC2=O)nc2c(N)nc3cc(-n4cccn4)ccc3c21	TLR8 (Homo sapiens, UniProt Q9NR97)	> 100 µM

Let's switch to this compound now.
What measured EC50 goes with CCN(Cc1nc2c(N)nc3cc(-c4cc(C)nn4C)ccc3c2[nH]1)C(C)=O ?
> 100 µM
